PROTOCOL_DESCRIPTION: Acidity constant (pKa) measurement, Sirius T3 UV-metric, and speciation at pH 7.4
PROTOCOL_CONDITIONS: from experimental pKa
Known Negative form (pH = 7.40) of a selection of molecules
Remember to put the unit after the number in your answer.

Previously resolved entries follow.
CC(C)(c1cc(Br)c(O)c(Br)c1)c1cc(Br)c(O)c(Br)c1 :: 39%
Oc1ccc(C2(c3ccc(O)cc3)CCCCC2)cc1 [BPZ, 1,1'-Bis(4-hydroxyphenyl)cyclohexane] :: 1.11%
COC(=O)C(c1ccc(O)cc1)c1ccc(O)cc1 [Bz, Methyl bis(4-hydroxyphenyl)acetate] :: 26%
CC(c1ccc(O)cc1)c1ccc(O)cc1 :: 2.24%

Task item: Write down Negative form (pH = 7.40) measured for item CC1(C)[C@H](O)C(C)(C)[C@H]1O
Reply: 1e-6%

* * *

Test system: HEK293T (ERα)
PROTOCOL_CONDITIONS: Bioassay ERα; cytotoxicity; dosing range all; log-logistic model fit
Procedure: Cell culture conditions and bioassay protocols including response detection are provided in Text S2.1–2.4 and Table S3. − Cell viability was determined from cell confluency using an IncuCyte S3 Live-Cell Analysis System (Sartorius AG, Essen, Germany) before and after exposure, except for SH-SY5Y cells (live–dead staining with Nuclear Green LcS1 and propidium iodide, Abcam, UK). […]
QUANTITY_MEASURED: logIC10
Response field accepts a number only; no unit should be typed.

Oc1ccc(Cc2ccc(O)cc2)cc1 [BPF, Bis(4-hydroxyphenyl)methane] :: -3.78
C=CCOc1ccc(S(=O)(=O)c2ccc(O)cc2)cc1 [BPS-MAE, 4-[[4-(Allyloxy)phenyl]sulfonyl]phenol] :: -3.85
Cc1cc(Cc2cc(C)c(O)c(C)c2)cc(C)c1O [TMBPF, Bis(3,5-dimethyl-4-hydroxyphenyl)methane] :: -5.17

Note: attention shifts to another entry.
Task item: Write down logIC10 measured for item O=C(OCc1ccccc1)c1ccc(O)cc1 [BzPB, Benzyl 4-hydroxybenzoate]
Reply: -4.38

* * *

Known log Kow used of a selection of molecules
PROTOCOL_DESCRIPTION: Octanol-water partition constant (log Kow) measurement, Sirius T3 potentiometric log P
Format: physicochemical
PROTOCOL_CONDITIONS: experimental, this study
Response field accepts a number only; no unit should be typed.

Previously resolved entries follow.
CC(C)(c1cc(Br)c(O)c(Br)c1)c1cc(Br)c(O)c(Br)c1 :: 5.91
O=C(OCc1ccccc1)c1ccc(O)cc1 [BzPB, Benzyl 4-hydroxybenzoate] :: 3.30
COC(=O)C(c1ccc(O)cc1)c1ccc(O)cc1 [Bz, Methyl bis(4-hydroxyphenyl)acetate] :: 2.06
O=S(=O)(c1ccc(O)cc1)c1ccc(O)cc1 :: 1.97
Oc1ccc(Sc2ccc(O)cc2)cc1 :: 3.29

Task item: Write down log Kow used measured for item Oc1ccc(C(c2ccc(O)cc2)(C(F)(F)F)C(F)(F)F)cc1
Reply: 4.72

Task item: Write down log Kow used measured for item CC(c1ccccc1)(c1ccc(O)cc1)c1ccc(O)cc1
Reply: 5.06

Task item: Write down log Kow used measured for item CCC(C)(c1ccc(O)cc1)c1ccc(O)cc1
Reply: 3.72

* * *

TARGET_OR_SYSTEM: Estrogen Receptor ERα (Homo sapiens, UniProt P03372)
Sequence (P03372 311-547 limits assumed): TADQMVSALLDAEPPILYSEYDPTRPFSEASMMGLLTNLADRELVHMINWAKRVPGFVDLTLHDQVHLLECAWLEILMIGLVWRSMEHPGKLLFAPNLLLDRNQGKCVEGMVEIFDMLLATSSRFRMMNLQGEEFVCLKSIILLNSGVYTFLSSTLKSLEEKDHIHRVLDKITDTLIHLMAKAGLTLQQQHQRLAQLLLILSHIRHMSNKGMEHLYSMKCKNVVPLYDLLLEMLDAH
PROTOCOL_DESCRIPTION: cell-based
PROTOCOL_CONDITIONS: relative to BPA
Known Relative effect potency REPERα of a selection of compounds
Response field accepts a number only; no unit should be typed.

Previously resolved entries follow.
CC(C)Oc1ccc(S(=O)(=O)c2ccc(O)cc2)cc1 [D8, 4-((4-Isopropoxyphenyl)sulfonyl)phenol] :: 0.0329
CC1(C)C(O)C(C)(C)C1O (racemic) [r-TMCD] :: 2.88e-5

Task item: Write down Relative effect potency REPERα measured for item CCC(C)(c1ccc(O)cc1)c1ccc(O)cc1 [BPB, 4,4'-(Butane-2,2-diyl)diphenol]
Reply: 2.74

Task item: Write down Relative effect potency REPERα measured for item COC(=O)C(c1ccc(O)cc1)c1ccc(O)cc1 [Bz, Methyl bis(4-hydroxyphenyl)acetate]
Reply: 0.35

Task item: Write down Relative effect potency REPERα measured for item CC1(C)[C@H](O)C(C)(C)[C@H]1O [t-TMCD]
Reply: 0.000122

Task item: Write down Relative effect potency REPERα measured for item CC(C)c1cc(C(C)(C)c2ccc(O)c(C(C)C)c2)ccc1O [BPG]
Reply: 0.41

Task item: Write down Relative effect potency REPERα measured for item O=S(=O)(c1ccc(O)cc1)c1ccccc1O [2,4-BPS, 2,4'-Dihydroxydiphenyl sulfone]
Reply: 0.0187

Task item: Write down Relative effect potency REPERα measured for item CC(C)(c1ccc(O)cc1)c1ccc(O)cc1 [BPA, 4,4'-(Propane-2,2-diyl)diphenol, reference compound]
Reply: 1.00

Task item: Write down Relative effect potency REPERα measured for item O=C(OCc1ccccc1)c1ccc(O)cc1 [BzPB, Benzyl 4-hydroxybenzoate]
Reply: 0.12
